From: BindingDB's records for doi:10.1007/s00259-006-0324-y

Experimental system: Beta-2 adrenergic receptor (Bos taurus, UniProt Q28044)
Sequence (Q28044 whole entry): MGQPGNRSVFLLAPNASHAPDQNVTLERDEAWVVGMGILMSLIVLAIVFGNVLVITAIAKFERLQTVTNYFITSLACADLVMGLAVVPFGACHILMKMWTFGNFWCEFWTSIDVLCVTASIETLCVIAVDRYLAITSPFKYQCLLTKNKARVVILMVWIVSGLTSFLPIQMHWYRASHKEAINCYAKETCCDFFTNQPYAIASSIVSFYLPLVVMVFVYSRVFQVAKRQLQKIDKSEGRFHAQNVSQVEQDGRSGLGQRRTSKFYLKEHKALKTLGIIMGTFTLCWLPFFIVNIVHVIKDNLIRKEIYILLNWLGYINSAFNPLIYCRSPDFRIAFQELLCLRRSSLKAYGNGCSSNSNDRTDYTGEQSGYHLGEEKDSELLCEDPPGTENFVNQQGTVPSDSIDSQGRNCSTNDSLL
pKi: −log10 of the molar value.
Outcome measure: pKi

[[record]]
structure_smiles = "COc1ccccc1N1CCN(CCCCn2ncc(=O)n(C)c2=O)CC1"
observed_result = "< 5.00"


----------
Experimental system: Sodium-dependent dopamine transporter (Bos taurus)
Sequence (P27922 whole entry): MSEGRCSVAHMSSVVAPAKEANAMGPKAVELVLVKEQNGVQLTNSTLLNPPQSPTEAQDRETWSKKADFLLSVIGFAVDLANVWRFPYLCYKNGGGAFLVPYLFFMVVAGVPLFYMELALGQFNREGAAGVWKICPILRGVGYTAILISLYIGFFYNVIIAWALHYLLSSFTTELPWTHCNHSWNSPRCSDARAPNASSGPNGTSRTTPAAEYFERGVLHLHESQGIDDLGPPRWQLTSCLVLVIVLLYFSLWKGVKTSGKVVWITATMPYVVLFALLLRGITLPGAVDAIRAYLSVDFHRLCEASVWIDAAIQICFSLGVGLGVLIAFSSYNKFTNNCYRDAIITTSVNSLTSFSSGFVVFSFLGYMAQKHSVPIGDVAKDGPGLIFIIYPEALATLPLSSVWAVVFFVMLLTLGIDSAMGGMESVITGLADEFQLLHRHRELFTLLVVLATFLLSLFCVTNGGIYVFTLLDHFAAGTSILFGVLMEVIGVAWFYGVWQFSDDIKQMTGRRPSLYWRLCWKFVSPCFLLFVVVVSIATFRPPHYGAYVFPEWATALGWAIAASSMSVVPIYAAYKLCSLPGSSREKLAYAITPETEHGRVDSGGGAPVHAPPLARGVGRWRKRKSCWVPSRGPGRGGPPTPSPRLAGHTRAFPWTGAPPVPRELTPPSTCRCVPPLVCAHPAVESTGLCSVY
pKi: −log10 of the molar value.
Outcome measure: pKi

[[record]]
molecule = "COc1ccccc1N1CCN(CCCCn2ncc(=O)n(C)c2=O)CC1 [NSC_11603174]"
observed_result = "< 5.00"


----------
Experimental system: 5-hydroxytryptamine 1D receptor (Bos taurus, UniProt Q8MI13)
Sequence (Q8MI13 whole entry): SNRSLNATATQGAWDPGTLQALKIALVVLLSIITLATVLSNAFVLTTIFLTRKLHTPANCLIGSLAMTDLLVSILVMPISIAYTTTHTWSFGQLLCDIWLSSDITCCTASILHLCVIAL
Outcome measure: Ki (nM)

[[record]]
structure_smiles = "COc1ccccc1N1CCN(CCCCn2ncc(=O)n(C)c2=O)CC1"
observed_result = 88.3


----------
Experimental system: Potassium voltage-gated channel subfamily H member 2 (Bos taurus)
Sequence (A5PKI1 whole entry): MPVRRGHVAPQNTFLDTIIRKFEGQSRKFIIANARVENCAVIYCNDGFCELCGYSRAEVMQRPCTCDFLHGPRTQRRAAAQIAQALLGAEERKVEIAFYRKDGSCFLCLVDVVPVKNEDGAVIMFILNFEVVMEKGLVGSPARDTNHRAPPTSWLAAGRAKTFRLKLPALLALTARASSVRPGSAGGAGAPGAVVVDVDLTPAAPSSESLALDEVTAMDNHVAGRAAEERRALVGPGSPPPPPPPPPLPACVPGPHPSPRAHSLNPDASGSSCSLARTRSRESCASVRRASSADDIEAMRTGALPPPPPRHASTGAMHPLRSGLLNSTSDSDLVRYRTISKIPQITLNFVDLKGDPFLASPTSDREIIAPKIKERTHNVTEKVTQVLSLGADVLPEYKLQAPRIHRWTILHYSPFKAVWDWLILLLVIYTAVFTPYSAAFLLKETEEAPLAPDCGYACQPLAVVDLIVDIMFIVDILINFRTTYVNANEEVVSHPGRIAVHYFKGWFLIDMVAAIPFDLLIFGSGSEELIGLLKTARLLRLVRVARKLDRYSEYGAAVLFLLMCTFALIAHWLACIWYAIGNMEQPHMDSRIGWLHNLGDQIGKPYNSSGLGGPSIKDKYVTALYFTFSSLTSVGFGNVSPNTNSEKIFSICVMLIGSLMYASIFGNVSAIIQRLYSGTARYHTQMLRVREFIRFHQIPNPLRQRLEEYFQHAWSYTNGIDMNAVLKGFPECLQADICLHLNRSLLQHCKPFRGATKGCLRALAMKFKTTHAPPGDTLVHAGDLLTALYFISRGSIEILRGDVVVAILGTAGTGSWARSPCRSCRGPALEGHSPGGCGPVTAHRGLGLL
Outcome measure: Ki

[[record]]
structure_smiles = "COc1ccccc1N1CCN(CCCCn2ncc(=O)n(C)c2=O)CC1"
experimental_system = "Potassium voltage-gated channel subfamily H member 2 (Bos taurus)"
observed_result = "> 10 µM"


----------
Experimental system: Voltage-dependent L-type calcium channel subunit beta-2 (Bos taurus)
Sequence (Q9MZL5 whole entry): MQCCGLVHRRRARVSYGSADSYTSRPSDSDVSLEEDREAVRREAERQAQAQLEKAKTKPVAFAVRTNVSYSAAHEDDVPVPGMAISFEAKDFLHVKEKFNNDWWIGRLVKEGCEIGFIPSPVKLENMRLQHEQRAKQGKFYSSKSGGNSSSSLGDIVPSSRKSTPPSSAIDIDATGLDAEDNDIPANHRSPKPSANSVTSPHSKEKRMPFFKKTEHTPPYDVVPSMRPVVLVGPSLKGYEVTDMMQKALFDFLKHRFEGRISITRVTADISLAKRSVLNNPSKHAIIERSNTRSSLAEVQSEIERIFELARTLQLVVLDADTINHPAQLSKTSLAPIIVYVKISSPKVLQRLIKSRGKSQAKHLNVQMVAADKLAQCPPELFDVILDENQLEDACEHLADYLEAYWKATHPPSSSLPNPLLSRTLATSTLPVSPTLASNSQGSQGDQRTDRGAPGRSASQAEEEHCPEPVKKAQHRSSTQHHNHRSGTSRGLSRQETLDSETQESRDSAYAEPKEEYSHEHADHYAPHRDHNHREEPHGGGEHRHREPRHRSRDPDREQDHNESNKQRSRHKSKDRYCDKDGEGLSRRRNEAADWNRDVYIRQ
pKi: −log10 of the molar value.
Outcome measure: pKi

[[record]]
compound = "COc1ccccc1N1CCN(CCCCn2ncc(=O)n(C)c2=O)CC1 [NSC_11603174]"
experimental_system = "Voltage-dependent L-type calcium channel subunit beta-2 (Bos taurus)"
observed_result = "< 5.00"


----------
Experimental system: Vesicle amine transport protein 1 homolog (T. californica)-like (Bos taurus, UniProt Q29RL6)
Sequence (Q29RL6 whole entry): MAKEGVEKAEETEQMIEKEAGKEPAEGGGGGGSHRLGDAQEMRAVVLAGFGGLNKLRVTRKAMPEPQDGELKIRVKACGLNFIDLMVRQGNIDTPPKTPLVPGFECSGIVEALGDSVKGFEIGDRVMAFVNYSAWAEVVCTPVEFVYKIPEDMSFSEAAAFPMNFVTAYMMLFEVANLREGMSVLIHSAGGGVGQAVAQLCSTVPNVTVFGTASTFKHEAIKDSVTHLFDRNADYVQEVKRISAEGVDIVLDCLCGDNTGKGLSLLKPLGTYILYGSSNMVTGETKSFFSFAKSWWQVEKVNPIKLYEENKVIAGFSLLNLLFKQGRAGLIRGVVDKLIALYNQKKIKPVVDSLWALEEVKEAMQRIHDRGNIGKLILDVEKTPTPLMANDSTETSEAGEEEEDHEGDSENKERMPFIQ
pKi: −log10 of the molar value.
Outcome measure: pKi

[[record]]
molecule = "COc1ccccc1N1CCN(CCCCn2ncc(=O)n(C)c2=O)CC1 [NSC_11603174]"
observed_result = "< 5.00"


----------
Experimental system: D(1A) dopamine receptor (Bos taurus, UniProt Q95136)
Sequence (Q95136 whole entry): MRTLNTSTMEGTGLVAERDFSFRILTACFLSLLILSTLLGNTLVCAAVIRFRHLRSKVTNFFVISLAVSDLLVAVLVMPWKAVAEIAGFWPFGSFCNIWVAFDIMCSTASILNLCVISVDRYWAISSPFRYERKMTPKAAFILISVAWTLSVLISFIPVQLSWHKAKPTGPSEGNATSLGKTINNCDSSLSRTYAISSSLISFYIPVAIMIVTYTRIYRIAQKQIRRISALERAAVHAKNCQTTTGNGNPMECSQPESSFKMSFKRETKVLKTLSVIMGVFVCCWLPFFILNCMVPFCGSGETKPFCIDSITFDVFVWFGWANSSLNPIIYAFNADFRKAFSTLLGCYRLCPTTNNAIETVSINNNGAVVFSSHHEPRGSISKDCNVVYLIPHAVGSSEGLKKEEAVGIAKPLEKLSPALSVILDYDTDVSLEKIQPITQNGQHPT
pKi: −log10 of the molar value.
Outcome measure: pKi

[[record]]
molecule = "COc1ccccc1N1CCN(CCCCn2ncc(=O)n(C)c2=O)CC1 [NSC_11603174]"
outcome_measure = "pKi"
observed_result = "< 5.00"


----------
Experimental system: Dopamine receptor D4 (Bos taurus)
Sequence (Q8WNT0 whole entry): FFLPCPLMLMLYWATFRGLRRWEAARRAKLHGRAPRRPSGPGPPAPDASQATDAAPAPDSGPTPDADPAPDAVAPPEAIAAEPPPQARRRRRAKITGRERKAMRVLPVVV
pKi: −log10 of the molar value.
Outcome measure: pKi

[[record]]
structure_smiles = "COc1ccccc1N1CCN(CCCCn2ncc(=O)n(C)c2=O)CC1"
outcome_measure = "pKi"
observed_result = 7.66


----------
Experimental system: Vasopressin V1b receptor (Bos taurus)
Sequence (F1ME85 whole entry): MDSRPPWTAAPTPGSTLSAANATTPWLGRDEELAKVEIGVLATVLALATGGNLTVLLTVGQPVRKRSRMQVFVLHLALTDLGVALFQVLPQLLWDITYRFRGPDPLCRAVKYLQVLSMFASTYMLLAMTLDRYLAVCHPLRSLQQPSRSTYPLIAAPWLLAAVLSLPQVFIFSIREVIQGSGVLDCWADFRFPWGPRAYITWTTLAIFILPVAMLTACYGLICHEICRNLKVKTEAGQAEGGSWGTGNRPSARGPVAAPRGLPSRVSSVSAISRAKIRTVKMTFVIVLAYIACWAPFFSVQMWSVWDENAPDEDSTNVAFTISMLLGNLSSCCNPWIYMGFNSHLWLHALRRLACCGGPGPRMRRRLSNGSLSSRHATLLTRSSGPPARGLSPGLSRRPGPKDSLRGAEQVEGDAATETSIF
Outcome measure: Ki

[[record]]
structure_smiles = "COc1ccccc1N1CCN(CCCCn2ncc(=O)n(C)c2=O)CC1"
observed_result = "> 10 µM"


----------
Experimental system: Glutamate receptor (Bos taurus, UniProt E1BGZ0)
Sequence (E1BGZ0 whole entry): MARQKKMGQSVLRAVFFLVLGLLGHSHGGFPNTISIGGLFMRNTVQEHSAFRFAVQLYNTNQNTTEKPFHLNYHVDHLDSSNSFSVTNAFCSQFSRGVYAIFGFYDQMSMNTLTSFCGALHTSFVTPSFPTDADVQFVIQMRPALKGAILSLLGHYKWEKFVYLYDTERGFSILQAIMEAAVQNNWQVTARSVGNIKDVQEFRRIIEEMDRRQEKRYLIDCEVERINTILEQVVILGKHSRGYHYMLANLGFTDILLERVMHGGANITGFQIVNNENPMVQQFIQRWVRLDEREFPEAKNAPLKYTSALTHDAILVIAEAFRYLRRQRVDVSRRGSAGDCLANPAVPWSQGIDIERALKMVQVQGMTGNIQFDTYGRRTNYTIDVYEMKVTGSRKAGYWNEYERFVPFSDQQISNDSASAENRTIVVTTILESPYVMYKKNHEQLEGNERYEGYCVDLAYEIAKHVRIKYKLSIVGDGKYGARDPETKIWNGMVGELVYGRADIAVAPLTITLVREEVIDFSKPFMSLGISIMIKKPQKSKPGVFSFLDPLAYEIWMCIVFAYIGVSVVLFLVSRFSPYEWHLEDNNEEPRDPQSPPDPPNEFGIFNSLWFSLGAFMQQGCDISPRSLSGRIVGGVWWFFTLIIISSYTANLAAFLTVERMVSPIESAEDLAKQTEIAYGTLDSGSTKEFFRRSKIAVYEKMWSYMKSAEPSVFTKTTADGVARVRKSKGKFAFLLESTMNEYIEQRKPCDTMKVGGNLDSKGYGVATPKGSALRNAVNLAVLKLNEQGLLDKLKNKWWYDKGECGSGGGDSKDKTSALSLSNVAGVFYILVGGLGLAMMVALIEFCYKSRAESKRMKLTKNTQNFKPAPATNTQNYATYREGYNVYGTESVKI
pKi: −log10 of the molar value.
Outcome measure: pKi

[[record]]
molecule = "COc1ccccc1N1CCN(CCCCn2ncc(=O)n(C)c2=O)CC1 [NSC_11603174]"
outcome_measure = "pKi"
observed_result = "< 5.00"


----------
Experimental system: 5-hydroxytryptamine receptor 7 (Bos mutus, UniProt L8II28)
Sequence (L8II28 whole entry): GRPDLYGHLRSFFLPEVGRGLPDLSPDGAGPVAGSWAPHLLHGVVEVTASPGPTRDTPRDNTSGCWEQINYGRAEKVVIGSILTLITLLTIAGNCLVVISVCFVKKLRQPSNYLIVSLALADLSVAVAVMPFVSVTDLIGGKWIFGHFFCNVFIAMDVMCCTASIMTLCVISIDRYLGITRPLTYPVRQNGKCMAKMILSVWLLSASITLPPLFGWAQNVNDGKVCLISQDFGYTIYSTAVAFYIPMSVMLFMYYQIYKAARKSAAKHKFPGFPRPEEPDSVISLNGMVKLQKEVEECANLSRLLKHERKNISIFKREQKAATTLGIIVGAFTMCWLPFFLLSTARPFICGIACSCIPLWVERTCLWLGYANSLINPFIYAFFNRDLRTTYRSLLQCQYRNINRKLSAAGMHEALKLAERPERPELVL
Outcome measure: Ki (nM)

[[record]]
structure_smiles = "COc1ccccc1N1CCN(CCCCn2ncc(=O)n(C)c2=O)CC1"
scale_unit = "nM"
observed_result = 12.9


----------
Experimental system: Multidrug resistance protein 1 (Bos taurus)
Sequence (Q65A17 whole entry): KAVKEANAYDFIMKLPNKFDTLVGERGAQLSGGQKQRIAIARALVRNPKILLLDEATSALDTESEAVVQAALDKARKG
pKi: −log10 of the molar value.
Outcome measure: pKi

[[record]]
structure_smiles = "COc1ccccc1N1CCN(CCCCn2ncc(=O)n(C)c2=O)CC1"
experimental_system = "Multidrug resistance protein 1 (Bos taurus)"
observed_result = "< 5.00"


----------
Experimental system: D(2) dopamine receptor (Bos taurus, UniProt P20288)
Sequence (P20288 whole entry): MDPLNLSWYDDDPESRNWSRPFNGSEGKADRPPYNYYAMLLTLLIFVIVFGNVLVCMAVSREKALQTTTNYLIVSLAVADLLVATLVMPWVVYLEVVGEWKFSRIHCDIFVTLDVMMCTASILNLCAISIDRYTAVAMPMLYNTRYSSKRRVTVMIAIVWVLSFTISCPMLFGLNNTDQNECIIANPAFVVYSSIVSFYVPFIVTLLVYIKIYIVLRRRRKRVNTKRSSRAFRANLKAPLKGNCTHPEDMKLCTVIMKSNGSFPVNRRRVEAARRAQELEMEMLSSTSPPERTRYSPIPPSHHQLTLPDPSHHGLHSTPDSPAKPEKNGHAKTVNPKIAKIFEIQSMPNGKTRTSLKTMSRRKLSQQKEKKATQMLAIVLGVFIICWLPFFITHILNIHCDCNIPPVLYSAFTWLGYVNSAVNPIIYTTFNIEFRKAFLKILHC
pKi: −log10 of the molar value.
Outcome measure: pKi

[[record]]
compound = "COc1ccccc1N1CCN(CCCCn2ncc(=O)n(C)c2=O)CC1 [NSC_11603174]"
observed_result = "< 5.00"


----------
Experimental system: 5-hydroxytryptamine receptor 3A (Bos taurus)
Sequence (F1N4Y2 whole entry): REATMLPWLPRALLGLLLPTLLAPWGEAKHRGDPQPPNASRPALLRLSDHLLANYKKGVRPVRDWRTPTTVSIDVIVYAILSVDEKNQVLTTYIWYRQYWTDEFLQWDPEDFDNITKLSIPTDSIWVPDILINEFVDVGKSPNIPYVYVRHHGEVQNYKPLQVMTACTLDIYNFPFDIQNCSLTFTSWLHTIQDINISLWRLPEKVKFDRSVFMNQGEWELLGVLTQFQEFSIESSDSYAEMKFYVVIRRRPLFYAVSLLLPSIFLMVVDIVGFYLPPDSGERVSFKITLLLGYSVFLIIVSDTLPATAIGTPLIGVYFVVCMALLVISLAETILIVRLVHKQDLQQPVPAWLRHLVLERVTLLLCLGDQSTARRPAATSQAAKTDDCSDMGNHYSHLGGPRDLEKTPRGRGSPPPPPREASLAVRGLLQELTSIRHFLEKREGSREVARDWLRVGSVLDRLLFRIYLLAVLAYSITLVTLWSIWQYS
Outcome measure: Ki

[[record]]
molecule = "COc1ccccc1N1CCN(CCCCn2ncc(=O)n(C)c2=O)CC1 [NSC_11603174]"
observed_result = "> 10 µM"


----------
Experimental system: Gamma-aminobutyric acid receptor subunit alpha-1 (Bos taurus)
Sequence (P08219 whole entry): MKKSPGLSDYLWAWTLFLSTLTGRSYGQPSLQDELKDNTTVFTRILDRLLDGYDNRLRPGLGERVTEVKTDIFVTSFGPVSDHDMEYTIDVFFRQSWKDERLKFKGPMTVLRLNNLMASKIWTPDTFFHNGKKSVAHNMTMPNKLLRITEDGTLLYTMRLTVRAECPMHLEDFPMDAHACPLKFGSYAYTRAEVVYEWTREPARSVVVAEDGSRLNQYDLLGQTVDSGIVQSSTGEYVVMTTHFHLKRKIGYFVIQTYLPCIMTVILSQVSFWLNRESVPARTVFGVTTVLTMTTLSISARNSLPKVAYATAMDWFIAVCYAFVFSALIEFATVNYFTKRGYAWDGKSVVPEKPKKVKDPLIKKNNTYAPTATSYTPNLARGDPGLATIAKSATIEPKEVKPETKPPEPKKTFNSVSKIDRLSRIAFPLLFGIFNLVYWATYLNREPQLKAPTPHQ
Outcome measure: Ki

[[record]]
structure_smiles = "COc1ccccc1N1CCN(CCCCn2ncc(=O)n(C)c2=O)CC1"
experimental_system = "Gamma-aminobutyric acid receptor subunit alpha-1 (Bos taurus)"
observed_result = "> 10 µM"

